- target: NAMPT (Homo sapiens)
- Construct: His tag; host or cells: E. coli
- experiment: Biochemical inhibition assay: NAMPT enzymatic reaction, NMN quantified by mass spectrometry
- study_conditions: NAMPT enzymatic assay; read-out: Biochem IC50
Recorded log10 of IC50 by entry
Note the log scale: values are log10 of IC50 expressed in nM.

O=C(NCc1ccc(S(=O)(=O)c2cccc(N3CCCCC3)c2)cc1)c1cnc2[nH]ncc2c1 = 1.73
COc1cncc(S(=O)(=O)c2ccc(CNC(=O)c3cc4ccncc4s3)cc2)c1 = 0.95
Cc1ccncc1S(=O)(=O)c1ccc(CNC(=O)c2ccc3nccn3c2)cc1 = 1.82
Cc1cc(C)n(-c2cccc(S(=O)(=O)c3ccc(CNC(=O)c4cc5ccncc5s4)cc3)c2)n1 = 0.49
O=C(NCc1ccc(S(=O)(=O)c2cccc(C(F)(F)F)n2)cc1)c1cc2ccncc2o1 = 0.70

Quick one: log10 of IC50 of CC(C)NC(=O)c1cccc(S(=O)(=O)c2ccc(CNC(=O)c3ccc4nccn4c3)cc2)c1 ?
1.35

Ok, now Cc1nc(S(=O)(=O)c2ccc(CNC(=O)c3cnc4[nH]ncc4c3)cc2)cs1
1.92

Ok, now O=C(NCc1ccc(S(=O)(=O)c2ccc(C(F)(F)F)c(Cl)c2)cc1)c1cc2ccncc2s1
0.48

Ok, now O=C(NCc1ccc(S(=O)(=O)c2ccccc2)cc1)c1c[nH]c2ccncc12
3.28

Ok, now CN(C)c1ccc(S(=O)(=O)c2ccc(CNC(=O)c3cc4cnccc4[nH]3)cc2)cn1
1.32

Ok, now O=C(NCc1ccc(S(=O)(=O)c2ccc(CO)cc2)cc1)c1cc2ccncc2o1
0.69

Ok, now O=C(NCc1ccc(S(=O)(=O)c2cccc3c2OCC3)cc1)c1cc2cnccc2[nH]1
1.15

Ok, now O=C(NCc1ccc(S(=O)(=O)c2cnc(N3CCCC3)s2)cc1)c1cc2cnccc2[nH]1
0.78

Ok, now O=C(NCc1ccc(S(=O)(=O)c2ccc(N3CCCC3)cc2)cc1)c1ccc2nccn2c1
0.48

Ok, now O=C(NCc1ccc(S(=O)(=O)c2cc(F)cc(OCC(F)(F)F)c2)cc1)c1cnc2[nH]ncc2c1
0.90

###

- target: NAMPT (Homo sapiens)
- Construct: His tag; host or cells: E. coli
- experiment: Biochemical inhibition assay: NAMPT enzymatic reaction, NMN quantified by mass spectrometry
- study_conditions: NAMPT enzymatic reaction; read-out: Biochem IC50
just bin them by IC50: A (below 7 nM), B (7 nM to below 80 nM), C (80 nM or more)

Band assignment needed for CCc1ccc(S(=O)(=O)c2ccc(CNC(=O)c3cnc4nccn4c3)cc2)cc1 please.
A

Ok, now CCOc1cc(S(=O)(=O)c2ccc(CNC(=O)c3cnc4nccn4c3)cc2)ccc1F
A

Ok, now CCOc1ccc(NS(=O)(=O)c2ccc(CNC(=O)c3cc4cnccc4[nH]3)cc2)c(F)c1
C

Ok, now COc1ccc(F)cc1S(=O)(=O)c1ccc(CNC(=O)c2cnc3nccn3c2)cc1
B

Ok, now COc1cccc(S(=O)(=O)c2ccc(CNC(=O)c3cnc4[nH]ncc4c3)cc2)c1OC
C

Ok, now COc1ccc(S(=O)(=O)c2ccc(CNC(=O)c3cnc4[nH]ncc4c3)cc2)c(OC)c1
C

Ok, now O=C(NCc1ccc(S(=O)(=O)c2ccc(Cl)cc2)cc1)c1cnc2[nH]ncc2c1
B

Ok, now COc1ccc(S(=O)(=O)c2ccc(CNC(=O)c3cc4ccncc4s3)cc2)cc1OC
A

Ok, now COc1cccc(S(=O)(=O)c2ccc(CNC(=O)c3cnc4[nH]ncc4c3)cc2)c1
B

Ok, now Cc1ccc(Cl)c(S(=O)(=O)c2ccc(CNC(=O)c3cc4ccncc4o3)cc2)c1Cl
B

###

- target: NAMPT (Homo sapiens, UniProt P43490)
- Construct: His tag; host or cells: E. coli
- Sequence (P43490 whole entry): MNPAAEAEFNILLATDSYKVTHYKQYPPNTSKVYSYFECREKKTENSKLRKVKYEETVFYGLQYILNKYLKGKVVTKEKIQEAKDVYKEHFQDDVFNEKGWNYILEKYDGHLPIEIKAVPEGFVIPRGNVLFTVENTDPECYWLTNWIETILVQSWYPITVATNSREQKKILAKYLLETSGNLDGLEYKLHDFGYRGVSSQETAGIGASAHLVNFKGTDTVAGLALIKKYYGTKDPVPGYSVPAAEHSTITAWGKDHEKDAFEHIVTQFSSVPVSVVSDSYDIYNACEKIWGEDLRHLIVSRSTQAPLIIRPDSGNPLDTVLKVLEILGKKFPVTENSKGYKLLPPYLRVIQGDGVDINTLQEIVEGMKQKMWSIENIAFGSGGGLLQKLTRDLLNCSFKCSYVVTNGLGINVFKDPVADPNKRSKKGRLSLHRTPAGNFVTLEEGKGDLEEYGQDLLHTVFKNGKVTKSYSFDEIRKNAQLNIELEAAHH
- experiment: Biochemical inhibition assay: NAMPT enzymatic reaction, NMN quantified by mass spectrometry
- study_conditions: NAMPT enzymatic reaction; read-out: Biochem IC50
pIC50: −log10 of the molar value.
Label rule, in plain words: pIC50 of 8 and up is class 1, under 8 is class 0.

N#Cc1ccccc1S(=O)(=O)c1ccc(CNC(=O)c2cc3cnccc3[nH]2)cc1 = class 0
Cc1cc(F)cc(S(=O)(=O)c2ccc(CNC(=O)c3ccc4nccn4c3)cc2)c1 = class 1
Cc1cc(S(=O)(=O)c2ccc(CNC(=O)c3ccc4nccn4c3)cc2)ccc1F = class 0
COc1ccc(C(C)=O)cc1S(=O)(=O)c1ccc(CNC(=O)c2cc3cnccc3[nH]2)cc1 = class 0

Is pIC50 for COc1ccccc1S(=O)(=O)c1ccc(CNC(=O)c2cnc3[nH]ncc3c2)cc1 at or above 8?
class 0

###

- target: NAMPT (Homo sapiens)
- Construct: His tag; host or cells: E. coli
- experiment: Biochemical inhibition assay: NAMPT enzymatic reaction, NMN quantified by mass spectrometry
- study_conditions: NAMPT enzymatic reaction; read-out: Biochem IC50
measure_name: pIC50
Note on units: pIC50 is unitless, being -log10 of a concentration expressed in mol/L.

Cc1cc(C)cc(S(=O)(=O)c2ccc(CNC(=O)c3cc4ccncc4o3)cc2)c1 = 7.78
COc1cccc(Cl)c1S(=O)(=O)c1ccc(CNC(=O)c2cc3ccncc3o2)cc1 = 7.78
Cc1ccc(S(=O)(=O)c2ccc(CNC(=O)c3cc4ccncc4o3)cc2)c(F)c1 = 7.91
COc1cc(-n2cccn2)ccc1S(=O)(=O)c1ccc(CNC(=O)c2cc3cnccc3[nH]2)cc1 = 7.80
COc1ccc(S(=O)(=O)c2ccc(CNC(=O)c3ccc4nccn4c3)cc2)c(Cl)c1 = 7.78

Quick one: pIC50 of O=C(NCc1ccc(S(=O)(=O)c2ccccc2Oc2ccccc2)cc1)c1cc2cnccc2[nH]1 ?
7.96

###

- target: NAMPT (Homo sapiens, UniProt P43490)
- Construct: His tag; host or cells: E. coli
- experiment: Biochemical inhibition assay: NAMPT enzymatic reaction, NMN quantified by mass spectrometry
- study_conditions: NAMPT enzymatic assay; read-out: Biochem IC50
Recorded IC50 by entry
Field: numeric (nM). Do not append units.

# value lookup — system NAMPT (Homo sapiens, UniProt P43490), readout IC50, item Cn1ncc2c(S(=O)(=O)c3ccc(CNC(=O)c4cc5ccncc5o4)cc3)cccc21
9.2

###

- target: NAMPT (Homo sapiens, UniProt P43490)
- Construct: His tag; host or cells: E. coli
- experiment: Biochemical inhibition assay: NAMPT enzymatic reaction, NMN quantified by mass spectrometry
- study_conditions: NAMPT enzymatic reaction; read-out: Biochem IC50
Recorded pIC50 by entry
Note on units: pIC50 is unitless, being -log10 of a concentration expressed in mol/L.

Consider the following illustrative entries.
COc1cc(F)ccc1S(=O)(=O)c1ccc(CNC(=O)c2cc3ccncc3s2)cc1 = 8.05
Cc1ccccc1S(=O)(=O)c1ccc(CNC(=O)c2cc3ccncc3o2)cc1 = 7.82
Cc1cccc(C)c1S(=O)(=O)c1ccc(CNC(=O)c2cnc3[nH]ncc3c2)cc1 = 6.80
COc1cc(C)c(S(=O)(=O)c2ccc(CNC(=O)c3cnc4nccn4c3)cc2)cc1C = 8.28
COc1ccc(Cl)c(S(=O)(=O)c2ccc(CNC(=O)c3cnc4[nH]ncc4c3)cc2)c1 = 7.61
Cc1cc(S(=O)(=O)c2ccc(CNC(=O)c3cnc4nccn4c3)cc2)c(C)cc1F = 8.24

Consider the additional compound presented here.
Quick one: pIC50 of Cc1ccccc1S(=O)(=O)c1ccc(CNC(=O)c2cc3cnccc3[nH]2)cc1 ?
7.85

###

- target: NAMPT (Homo sapiens)
- Construct: His tag; host or cells: E. coli
- experiment: Biochemical inhibition assay: NAMPT enzymatic reaction, NMN quantified by mass spectrometry
- study_conditions: NAMPT enzymatic assay; read-out: Biochem IC50
Param label: returns Criterion met when IC50 < 10 nM, returns Criterion not met otherwise, including exact equality.

State whether 10 nM exceeds IC50 recorded for O=C(NCc1ccc(S(=O)(=O)c2ccc(-n3cccn3)c(F)c2)cc1)c1cnc2[nH]ncc2c1 .
Criterion not met

Ok, now O=C(NCc1ccc(S(=O)(=O)c2cc(Cl)cc(C(F)(F)F)c2)cc1)c1cnc2[nH]ncc2c1
Criterion met

Ok, now COc1cccc(S(=O)(=O)c2ccc(CNC(=O)c3cc4ccncc4o3)cc2)n1
Criterion met

Ok, now CC(C)COc1cc(F)cc(S(=O)(=O)c2ccc(CNC(=O)c3cnc4[nH]ncc4c3)cc2)c1
Criterion not met

Ok, now CC(C)c1cccc(S(=O)(=O)c2ccc(CNC(=O)c3cnc4nccn4c3)cc2)c1
Criterion met

###

- target: NAMPT (Homo sapiens)
- Construct: His tag; host or cells: E. coli
- experiment: Biochemical inhibition assay: NAMPT enzymatic reaction, NMN quantified by mass spectrometry
- study_conditions: NAMPT enzymatic reaction; read-out: Biochem IC50
- Excerpt: Biochemical Inhibition Assay NAMPT Protein Purification Recombinant His-tagged NAMPT was produced in E. coli cells, purified over a Ni column, and further purified over a size-exclusion column by XTAL Biostructures. The NAMPT Enzymatic Reaction […] A mass spectrometry-based assay was used to measure the NAMPT reaction product (NMN) and the internal control (L-Cystathionine). NMN and L-Cystathionine were detected using the services of Biocius Lifesciences with the RapidFire system. […]
pIC50: −log10 of the molar value.
Label rule, in plain words: pIC50 of 8 and up is yes, under 8 is no.

COc1cccc(Cl)c1S(=O)(=O)c1ccc(CNC(=O)c2ccc3nccn3c2)cc1 = no
O=C(NCc1ccc(S(=O)(=O)c2cccc(F)c2)cc1)c1cnc2[nH]ncc2c1 = no

Is pIC50 for O=C(NCc1ccc(S(=O)(=O)c2cc(F)cc(Cl)c2)cc1)c1ccc2nccn2c1 at or above 8?
yes
